# credit: paper PMC8328003

Molecular target: UniProtKB P32300
Assay: Competition binding against 125I-IBNtxA, CHO cell membranes
Settings: affinity (Ki) mDOR, 125I-IBNtxA (0.1 nM)
So I've got a bunch of molecules here, and I need their Ki values.
Form entry: value (nM) — number only.

-- ask Need Ki of CC[C@@H]1CN2CC[C@]3(C(=O)Nc4ccccc43)[C@@H]2C[C@@H]1/C(=C\OC)C(=O)OC [corynoxine B] , thanks.
-- reply 1680

-- ask Need Ki of CC[C@@H]1CN2CC[C@@]3(C(=O)Nc4ccccc43)[C@@H]2C[C@@H]1/C(=C\OC)C(=O)OC [corynoxine] , thanks.
-- reply 1270

* * *

Target: mouse kappa opioid receptor (mKOR) (Mus musculus)
Assay: Competition binding against 125I-IBNtxA, CHO cell membranes
Details: affinity (Ki) mKOR, 125I-IBNtxA (0.1 nM)
measured-property: Ki (µM)
Form entry: value (µM) — number only.

-- ask Need Ki of "CC[C@@H]1CN2CC[C@@]3(C(=O)Nc4ccccc43)[C@@H]2C[C@@H]1/C(=C\OC)C(=O)OC" , thanks.
-- reply 3.08

* * *

Molecular target: mKOR (Mus musculus, UniProt P33534)
Assay: [35S]GTPγS functional assay, CHO membranes
Assay type: biochemical
Details: read-out: mKOR EC50; [35S]GTPγS
measured-property: pEC50
Hey, just a heads up that pEC50 is the negative log base 10 of the concentration in molar.

-- ask Need pEC50 of "C=C[C@H]1CN2CCc3c([nH]c4cccc(OC)c34)[C@H]2C[C@@H]1/C(=C\OC)C(=O)OC" , thanks.
-- reply 6.55

* * *

Target: mouse kappa opioid receptor (mKOR) (Mus musculus)
Assay: Competition binding against 125I-IBNtxA, CHO cell membranes
Details: affinity (Ki) mKOR, 125I-IBNtxA (0.1 nM), μM
measured-property: Ki

-- ask Need Ki of CC[C@@H]1CN2CC[C@]3(C(=O)Nc4ccccc43)[C@@H]2C[C@@H]1/C(=C\OC)C(=O)OC [corynoxine B] , thanks.
-- reply > 10 µM

* * *

Target: mouse mu opioid receptor (mMOR) (Mus musculus)
Test: Competition binding against 125I-IBNtxA, CHO cell membranes
Settings: read-out: affinity (Ki) mMOR; 125I-IBNtxA (0.1 nM), CHO membranes
measured-property: Ki (nM)
Form entry: value (nM) — number only.

-- ask Need Ki of "C=C[C@H]1CN2CCc3c([nH]c4cccc(OC)c34)[C@H]2C[C@@H]1/C(=C\OC)C(=O)OC" , thanks.
-- reply 91.8

* * *

Target: mMOR (Mus musculus)
Assay: [35S]GTPγS functional assay, CHO membranes
Type: biochemical
measured-property: pEC50
Hey, just a heads up that pEC50 is the negative log base 10 of the concentration in molar.

-- ask Could you share what pEC50 was measured for "CC[C@@H]1CN2CC[C@@]3(C(=O)Nc4ccccc43)[C@@H]2C[C@@H]1/C(=C\OC)C(=O)OC" , tested on mMOR (Mus musculus)?
-- reply 6.69

* * *

Molecular target: hNET (Homo sapiens, UniProt P23975)
Test: NIMH-PDSP radioligand binding
Conditions: read-out: affinity Ki hNET
measured-property: pKi
Hey, just a heads up that pKi is the negative log base 10 of the concentration in molar.

-- ask Need pKi of "CC[C@H]1CN2CCc3c([nH]c4cccc(OC)c34)[C@H]2C[C@@H]1/C(=C\OC)C(=O)OC" , thanks.
-- reply 5.18
